B1: TLE6 (parent)
chain: FWHDTLTEQLWRIFAGVHDEKAKP

# Variants of: B1
# experiment: protein stability index of a GFP-peptide fusion (GPS, HEK-293T) (PSI 1-6); higher = more stable;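 note: lentivirally expressed fusions sorted by FACS into six bins by GFP to DsRed ratio, PSI derived from sequencing read proportions per bin multiplied by bin number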
# test-conditions: c terminus: a fixed tail appended
parameter-measured: protein stability index
Lab note: write the figure by itself, no unit.

Examples with answers:
{"columns": ["mutant", "protein stability index"],
 "data": [
  ["T5L", 1.97],
  ["D19M", 2.1],
  ["I13T", 2.44],
  ["E8L", 2.23]
]}

Qu. Tell me the measured protein stability index of F1I , please.
Ans. 1.95

Qu. Fill blank: measured protein stability index of the variant W11H is ____.
Ans. 2.52

Qu. # lookup: protein stability index of Q9G
Ans. 2.65

Qu. Recorded protein stability index of W2E , please.
Ans. 2.41

Qu. Report protein stability index for L6G please.
Ans. 1.77

Qu. Param item = E20F ; retrieve measured protein stability index.
Ans. 1.82

Qu. Given the entry E8P , report its measured protein stability index.
Ans. 1.76

Qu. protein stability index for T5R ?
Ans. 1.53
